Origin of measurements: ChEMBL document CHEMBL1126078

- targetEntity: GABA-A receptor; anion channel (Bos taurus) (UniProt P10063+P08220+P20237+P08219+P10064+P22300)
- assayInfo: In vitro inhibition of specific binding of [3H]flunitrazepam to benzodiazepine receptor in bovine cerebral cortex membrane at a concentration of 10 uM.
- Type: cell membranes
Label 1.0 for high-side inhibition (at or above 90%) and 0.0 for low-side inhibition (below it).

Past entries and their recorded results:
smi | labelClass
O=C(NCCc1ccccc1)C(=O)c1c[nH]c2ccc(Cl)cc12 | 0.0
COc1ccc(CCNC(=O)C(=O)c2c[nH]c3ccc([N+](=O)[O-])cc23)cc1 | 0.0
O=C(NCCc1ccc(Cl)cc1)C(=O)c1c[nH]c2ccc([N+](=O)[O-])cc12 | 0.0

Threshold query (inhibition >= 90%) on "O=C(NCCc1ccc(Cl)cc1)C(=O)c1c[nH]c2ccc(Cl)cc12"
0.0

hey, is inhibition for this one >= 90%? "O=C(NCCc1ccccc1)C(=O)c1c[nH]c2ccccc12"
1.0

Determine whether this compound has inhibition no lower than 90%: "COc1ccc(CCNC(=O)C(=O)c2cn(C)c3ccccc23)cc1"
0.0
